Data provenance is patent US20250084155A1.

target: T1, HSP70 (human HSP70; the antigen of the binning, humanization and variant binding assays) (human, UniProt P0DMV8 1-641, limits assumed); assay: BLI, anti-human Fc capture, antigen dilution series, 1:1 fit
T1 construct: also called hu HSP70
T1 sequence (P0DMV8 whole entry, change not shown): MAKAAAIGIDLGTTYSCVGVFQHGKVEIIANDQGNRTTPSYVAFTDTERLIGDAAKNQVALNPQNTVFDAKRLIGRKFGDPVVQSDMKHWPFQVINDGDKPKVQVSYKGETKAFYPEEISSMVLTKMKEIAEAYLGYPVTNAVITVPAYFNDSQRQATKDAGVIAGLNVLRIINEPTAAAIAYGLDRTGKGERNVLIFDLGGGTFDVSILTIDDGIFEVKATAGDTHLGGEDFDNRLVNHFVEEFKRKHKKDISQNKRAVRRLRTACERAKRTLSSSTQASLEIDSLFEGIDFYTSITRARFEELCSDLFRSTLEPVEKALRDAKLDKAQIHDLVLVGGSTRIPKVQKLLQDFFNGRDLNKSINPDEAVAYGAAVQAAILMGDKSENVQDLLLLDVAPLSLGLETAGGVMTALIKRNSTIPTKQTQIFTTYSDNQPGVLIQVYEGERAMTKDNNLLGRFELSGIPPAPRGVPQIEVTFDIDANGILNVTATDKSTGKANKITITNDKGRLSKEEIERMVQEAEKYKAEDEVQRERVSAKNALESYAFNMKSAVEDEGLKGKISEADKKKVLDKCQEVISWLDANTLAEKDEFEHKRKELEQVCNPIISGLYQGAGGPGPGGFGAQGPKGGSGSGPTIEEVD

{"binder": "h77A-1.27 (antibody, V domains shown, captured by anti-human Fc) VH: QIQLVQSGAEVKKPGASVKVSCKASGYTFTNYGMNWVRQAPGQGLEWMGWINTYTGEPTYTDDFKGRFTFTTDTSTSTAYMELRSLRSDDTAVYFCARYDHAMDYWGQGTLVTVSS VL: EIVLTQSPDSLTVSLGERATINCKSSQSLLNSGTRKNYLAWYQQKAGQSPKLLIYWTSTRESGVPDRFSGSGSGTDFTLTIDSLQAEDVAVYYCKQSYTLYTFGGGTKVEIK", "kon, M⁻¹ s⁻¹": 76400}
{"binder": "h77A-1.59 (antibody, V domains shown, captured by anti-human Fc) VH: QIQLVQSGPEVKKPGASVKVSCKASGYTFTNYGMNWVRQAPGQGLEWMGWINTYTGEPTYGDDFKGRFTFTTDTSTSTAYMELRSLRSDDTAVYFCGRYDHAMDYWGQGTLVTVSS VL: EIVLTQSPDSLAVSLGERATINCKSSQSLLNSGTRKNYLAWYQQKAGQSPKLLIYWTSTRESGVPDRFSGSGSGTDFTLTIDRLQAEDVAVYYCKQSYTLYTFGGGTKVEIK", "kon, M⁻¹ s⁻¹": 40800}
